Literature roundup of ITK (Homo sapiens) data, read-out Ki.

{"columns": ["Input smiles", "Ki"],
 "data": [
  ["COCCCc1cc(Nc2nc3nc4ccccc4c(=O)n3c3ccccc23)n[nH]1", "< 1000 nM"],
  ["O=C(Nc1cnn(Cc2ccccc2)c1)c1n[nH]c2c1CC1CC2C1", "38 nM"],
  ["Nc1nn2cc(-c3ccncc3)cnc2c1C(=O)c1ccccc1", "500 to 5000 nM"]
]}

Tell me the measured Ki of CC(C)CN(C)C(=O)c1ccc(-c2cnc3c(-c4ccccn4)c(N)nn3c2)nc1 , please.
< 500 nM

Tell me the measured Ki of O=C(Nc1ccc(Sc2nc(Nc3cc(CO)[nH]n3)cc(N3CCC3)n2)cc1)c1ccccc1Cl , please.
1000 to 2000 nM

Tell me the measured Ki of Nc1nn2cc(-c3cccc(C(=O)N4CCC(CCO)CC4)n3)cnc2c1-c1ccccn1 , please.
500 to 5000 nM

Tell me the measured Ki of Nc1nn2cc(-c3cccc(C(=O)N4CCC(N5CCCC5)CC4)n3)cnc2c1-c1ccccn1 , please.
500 to 5000 nM

Tell me the measured Ki of CNc1cncc(-c2c[nH]c(=O)c(/C=C/c3cc(CN4CCN(S(C)(=O)=O)CC4)ccc3[N+](=O)[O-])c2)n1 , please.
< 1000 nM

* * *

Literature roundup of ITK (Homo sapiens, UniProt Q08881) data, read-out Ki.

Solved cases below.
{"columns": ["Compound", "Target entity", "Value reported"],
 "data": [
  ["Nc1nn2cc(-c3ccncn3)cnc2c1C(=O)N(CCO)Cc1ccccc1", "ITK (Homo sapiens, UniProt Q08881)", "500 to 5000 nM"],
  ["COc1ccc(-c2cnc3c(-c4ccccc4)c(N)nn3c2)cc1", "ITK (Homo sapiens, UniProt Q08881)", "< 500 nM"],
  ["O=c1[nH]cc(-c2ccccc2)cc1-c1cc2ccccc2[nH]1", "ITK (Homo sapiens, UniProt Q08881)", "< 2000 nM"],
  ["CCN(CC)CCN(C)c1ccc(-c2cnc3c(-c4ccccn4)c(N)nn3c2)cn1", "ITK (Homo sapiens, UniProt Q08881)", "< 500 nM"],
  ["Cc1cnc2c(-c3cc(N4CCC[C@H]4CN4CCCC4)ncn3)c(N)nn2c1", "ITK (Homo sapiens, UniProt Q08881)", "500 to 5000 nM"],
  ["Nc1nn2cc(-c3ccncn3)cnc2c1C(=O)N1CCC[C@H]1CO", "ITK (Homo sapiens, UniProt Q08881)", "500 to 5000 nM"],
  ["CS(=O)(=O)Nc1ccccc1-c1cnc2c(-c3ccccn3)c(N)nn2c1", "ITK (Homo sapiens, UniProt Q08881)", "500 to 5000 nM"],
  ["O=C(Nc1cnn(Cc2ccccc2)c1)c1n[nH]c2c1CCC1(CSC1)C2", "ITK (Homo sapiens, UniProt Q08881)", "34 nM"]
]}

The record that follows has no Ki shown yet.
Give the reported Ki for O=c1c2ccccc2nc2nc(Nc3cc(C4CC4)n[nH]3)c3ccccc3n12 (system: ITK (Homo sapiens, UniProt Q08881)).
Sequence (Q08881 whole entry): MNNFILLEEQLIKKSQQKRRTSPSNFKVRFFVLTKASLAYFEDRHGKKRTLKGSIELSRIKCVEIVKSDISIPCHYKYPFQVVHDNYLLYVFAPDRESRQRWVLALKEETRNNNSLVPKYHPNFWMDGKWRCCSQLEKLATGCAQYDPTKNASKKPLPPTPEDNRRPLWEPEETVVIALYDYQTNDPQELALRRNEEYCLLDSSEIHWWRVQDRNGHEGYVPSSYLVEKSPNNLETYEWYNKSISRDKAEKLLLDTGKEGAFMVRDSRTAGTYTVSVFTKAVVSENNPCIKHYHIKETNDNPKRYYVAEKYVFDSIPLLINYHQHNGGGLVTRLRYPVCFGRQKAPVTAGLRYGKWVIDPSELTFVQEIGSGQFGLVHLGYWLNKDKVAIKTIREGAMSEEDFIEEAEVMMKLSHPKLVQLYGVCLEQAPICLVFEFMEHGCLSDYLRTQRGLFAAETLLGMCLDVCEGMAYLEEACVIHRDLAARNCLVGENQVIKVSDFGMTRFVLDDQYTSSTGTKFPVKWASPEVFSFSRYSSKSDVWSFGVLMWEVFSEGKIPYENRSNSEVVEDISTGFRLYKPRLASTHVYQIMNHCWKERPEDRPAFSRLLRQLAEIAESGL
< 1000 nM

* * *

Literature roundup of ITK (Homo sapiens) data, read-out Ki.

Solved cases below.
{"columns": ["Input smiles", "Target entity", "Ki"],
 "data": [
  ["Nc1nn2cc(-c3ccc(N4CCN(CCOCCO)CC4)nc3)cnc2c1-c1ccccn1", "ITK (Homo sapiens)", "< 500 nM"],
  ["CN(C)CCn1cc(NC(=O)c2n[nH]c3c2CCC(C)(C)C3)cn1", "ITK (Homo sapiens)", "78 nM"],
  ["Nc1nn2cc(-c3cccnc3N3CCOCC3)cnc2c1-c1ccccn1", "ITK (Homo sapiens)", "500 to 5000 nM"],
  ["Nc1nn2cc(-c3cccnc3N3CCC(CCO)CC3)cnc2c1-c1ccccn1", "ITK (Homo sapiens)", "500 to 5000 nM"],
  ["CCCCN(CCN)C(=O)c1cccc(-c2cnc3c(-c4ccccn4)c(N)nn3c2)n1", "ITK (Homo sapiens)", "< 500 nM"],
  ["Nc1nn2cc(-c3cccc(C(=O)N4CCC(N)CC4)n3)cnc2c1-c1ccccn1", "ITK (Homo sapiens)", "500 to 5000 nM"]
]}

Tell me the measured Ki of CN(C)CCNC(=O)c1ccc(-c2cnc3c(-c4ccccn4)c(N)nn3c2)nc1 , please.
< 500 nM

Tell me the measured Ki of O=C(Cc1ccc(F)cc1)N(c1nc(-c2c[nH]c3ncccc23)cs1)C1CC1 , please.
500 to 5000 nM

* * *

Literature roundup of ITK (Homo sapiens) data, read-out pKi.
pKi: −log10 of the molar value.

{"columns": ["Molecule", "Value reported"],
 "data": [
  ["CN(CCc1ccccn1)C(=O)c1ccc(-c2cnc3c(-c4ccccn4)c(N)nn3c2)nc1", "5.30 to 6.30"],
  ["Nc1nn2cc(-c3ccncc3)cnc2c1-c1cc(NC2CCCCC2)ncn1", "> 6.30"],
  ["CN1CCC(N(C)c2ccc(-c3cnc4c(-c5ccccn5)c(N)nn4c3)cn2)CC1", "> 6.30"],
  ["COCCN1CCN(C(=O)c2ccc(-c3cnc4c(-c5ccccn5)c(N)nn4c3)nc2)CC1", "> 6.30"],
  ["Nc1nn2cc(-c3cccc(C(=O)N4CCC(N)C4)n3)cnc2c1-c1ccccn1 (centres unmarked)", "5.30 to 6.30"],
  ["CCN(C)CCCc1cnc2c(-c3ccccn3)c(N)nn2c1", "5.30 to 6.30"],
  ["Nc1nn2cc(-c3ccc(N4CCC[C@@H]4CN4CCCC4)nc3)cnc2c1-c1ccccn1", "> 6.30"],
  ["Cc1cnc2c(-c3cc(N4CCCC(O)C4)ncn3)c(N)nn2c1 (centres unmarked)", "5.30 to 6.30"],
  ["O=C(NCC1CCNCC1)c1nc(-c2c[nH]c3ncc(-c4ccccc4)cc23)cs1", "5.30 to 6.30"],
  ["Nc1nn2cc(-c3ccccc3OCc3ccccc3)cnc2c1-c1ccccn1", "5.30 to 6.30"]
]}

Give the reported pKi for CCN(CC)C(=O)c1ccc(-c2cnc3c(-c4ccccn4)c(N)nn3c2)nc1 (system: ITK (Homo sapiens)).
> 6.30

Give the reported pKi for CCOC(=O)C1CCCN(c2ccc(-c3cnc4c(-c5ccccn5)c(N)nn4c3)cn2)C1 (centres unmarked) (system: ITK (Homo sapiens)).
5.30 to 6.30

Give the reported pKi for CN(C)CCCc1cnc2c(-c3ccccn3)c(N)nn2c1 (system: ITK (Homo sapiens)).
5.30 to 6.30

Give the reported pKi for CC1CCc2[nH]nc(C(=O)Nc3cnn(Cc4ccccc4)c3)c2C1 (single isomer, unassigned) (system: ITK (Homo sapiens)).
7.11

Give the reported pKi for C#CCN(C)C(=O)c1ccc(-c2cnc3c(-c4ccccn4)c(N)nn3c2)nc1 (system: ITK (Homo sapiens)).
> 6.30

Give the reported pKi for Cc1ccc(-c2cnc3c(-c4ccccc4Br)c(N)nn3c2)cc1 (system: ITK (Homo sapiens)).
5.30 to 6.30

Give the reported pKi for Nc1nn2cc(-c3ccc(CN4CCNCC4)cc3)cnc2c1-c1ccccn1 (system: ITK (Homo sapiens)).
> 6.30

* * *

Literature roundup of ITK (Homo sapiens, UniProt Q08881) data, read-out pKi.
pKi: −log10 of the molar value.

Solved cases below.
{"columns": ["Compound", "Value reported"],
 "data": [
  ["O=C(Nc1cnn(Cc2ccccc2)c1)c1n[nH]c2c1C1CC(C2)C1", 6.59],
  ["Nc1nn2cc(CCCO)cnc2c1-c1ccccn1", "5.30 to 6.30"],
  ["CN(CCC#N)C(=O)c1cccc(-c2cnc3c(-c4ccccn4)c(N)nn3c2)n1", "5.30 to 6.30"],
  ["COCc1cc(Nc2cc(N3CCC3)nc(Sc3ccc(NC(=O)c4ccccc4Cl)cc3)n2)n[nH]1", "6.00 to 7.00"],
  ["CNCCCN(C)C(=O)c1cccc(-c2cnc3c(-c4ccccn4)c(N)nn3c2)c1", "> 6.30"]
]}

Tell me the measured pKi of CN(C)CCN(C)C(=O)c1ccc(-c2cnc3c(Cc4ccccc4)c(N)nn3c2)nc1 , please.
5.30 to 6.30

Tell me the measured pKi of Nc1nn2cc(-c3ccncn3)cnc2c1C(=O)O , please.
5.30 to 6.30

Tell me the measured pKi of Nc1nn2cc(CCCNCC3CCCO3)cnc2c1-c1ccccn1 (stereo not shown) , please.
5.30 to 6.30

Tell me the measured pKi of Nc1nn2cc(-c3cccnc3N3CC[C@H](CN4CCCC4)C3)cnc2c1-c1ccccn1 , please.
5.30 to 6.30

Tell me the measured pKi of CCN(CCN)C(=O)c1cccc(-c2cnc3c(-c4ccccn4)c(N)nn3c2)n1 , please.
5.30 to 6.30
